Numbers sourced from PubChem BioAssay (NCI).

# Test system: HOP-62 NSCLC
# assay name: NCI-60 one-dose screen, 48 h (100 = growth as untreated, 0 = no growth, -100 = all killed)
# condition: 10 µM
Compounds without any hit were thinned out: in the full panel of roughly 83,000, 20% have a hit.
measured parameter: growth (%)
Only the number, expressed in %, is required.

# count of solved cases: 4
| molecule | display unit | growth |
| --- | --- | --- |
| COc1ccc(-c2nc(SCC(=O)c3ccc(Br)cc3)[nH]c(=O)c2C#N)cc1 | % | 101 |
| CCc1c(C)[nH]c(=O)c(C(N)=O)c1C#N | % | 96.7 |
| COc1ccc(-c2cn[nH]c2-c2cc(OC)c(OC)c(OC)c2)cc1 | % | 45.2 |
| COc1ccc(-c2ccc(-c3ccc(C(=N)N)c(F)c3)s2)cc1 | % | -75.7 |

Task: growth lookup needed for Cc1nc2ccc(-n3c(-c4ccc(Cl)cc4)nc4ccccc4c3=O)cc2n1Cc1ccccc1 , thanks.
Output: 81.9

Task: growth lookup needed for O=C(c1ccccc1)C(Sc1ccccc1)c1ccccc1 (configuration not stated) , thanks.
Output: 93

Task: growth lookup needed for CC(C)C[C@H](NC(=O)Cn1ccc(Nc2ccccc2)cc1=O)B(O)O , thanks.
Output: 49.5

Task: growth lookup needed for COc1ccc2nc(NC(=O)Nc3c(F)cccc3F)sc2c1 , thanks.
Output: 106

Task: growth lookup needed for C=CCNC(=S)NN , thanks.
Output: 81.2

Task: growth lookup needed for N#CC1C=Cc2c(ccc3ccccc23)N1C(=O)c1ccccc1 (configuration not stated) , thanks.
Output: 50

Task: growth lookup needed for CCCCCCCCCCSC(=N)N (tested in a mixture with another compound) , thanks.
Output: 77.3

Task: growth lookup needed for C=CCOc1ccc2c(c1)CC[C@@H]1[C@@H]2CC[C@]2(C)C(=O)/C(=N/O)C[C@@H]12 , thanks.
Output: 56.7

Task: growth lookup needed for Cc1ccc(-n2c(-c3cc4c([nH]c5ccccc54)c(-c4cccc(O)c4)n3)n[nH]c2=S)cc1 , thanks.
Output: -24
